FYI, the data here is from patent US20250236642A1.

- System tested: HLA-A*24:02 molecule
- Procedure details: flow cytometry, C1R-A24 cells
Measured property: -log Kd value
The response must contain the number and no unit.

Take a look at these entries with their results.
IQYSSFHNL (modifications not checked) [peptide of SEQ ID NO: 21] : -6.53
ALPAPHLTL (modifications not checked) [peptide of SEQ ID NO: 18] : -6.73
ALQPPCPNL (modifications not checked) [peptide of SEQ ID NO: 31] : -5.31
IALETPVWI (modifications not checked) [peptide of SEQ ID NO: 20] : -5.48
ALQFLIPRL (modifications not checked) [peptide of SEQ ID NO: 22] : -4.96

Q: Return value of -log Kd value for input YQLSPPITW (modifications not checked) [peptide of SEQ ID NO: 32] , no commentary.
Result: -6.76
